Consider the following molecules and their measured Ki readings.
Target: CB1 receptor (Rattus norvegicus, UniProt P20272)
Construct: using rat forebrain membranes as a source of CB1; from tissue; host or cells: rat forebrain (whole brain minus cerebral cortex) membranes
Sequence (P20272 whole entry): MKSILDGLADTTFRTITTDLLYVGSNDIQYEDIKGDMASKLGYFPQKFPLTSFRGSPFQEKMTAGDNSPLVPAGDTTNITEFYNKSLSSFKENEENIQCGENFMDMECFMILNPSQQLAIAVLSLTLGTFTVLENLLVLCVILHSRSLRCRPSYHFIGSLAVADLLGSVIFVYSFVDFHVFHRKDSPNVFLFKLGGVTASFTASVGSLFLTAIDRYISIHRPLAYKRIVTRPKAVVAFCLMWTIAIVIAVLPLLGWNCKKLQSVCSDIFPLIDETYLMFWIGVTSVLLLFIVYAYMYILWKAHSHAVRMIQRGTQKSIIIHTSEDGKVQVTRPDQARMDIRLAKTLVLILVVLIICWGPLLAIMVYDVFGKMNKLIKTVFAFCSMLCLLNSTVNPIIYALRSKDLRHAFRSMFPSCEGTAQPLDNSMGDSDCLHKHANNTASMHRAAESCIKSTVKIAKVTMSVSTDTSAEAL
Experiment: Radioligand binding assay ([3H]CP-55,940 displacement), rat forebrain membranes as source of CB1
Settings: rat forebrain membranes; 0.8 nM [3H]CP-55,940; Ki from IC50 by Cheng and Prusoff; read-out: Ki in nM for the CB1 Receptor
Observable: Ki (nM)

CC1=CC[C@@H]2[C@@H](C1)c1c(O)cc(C34CC5CC(CC(C5)C3)C4)cc1OC2(C)C    6.9
CCCCCCC1(c2cc(O)c3c(c2)OC(C)(C)[C@@H]2CC=C(C)C[C@@H]32)SCCS1    0.32
